target: ErbB4 on neonatal rat cardiomyocytes (rat) (UniProt Q62956); test: cell-based or functional assay
Sequence (Q62956 26-1308): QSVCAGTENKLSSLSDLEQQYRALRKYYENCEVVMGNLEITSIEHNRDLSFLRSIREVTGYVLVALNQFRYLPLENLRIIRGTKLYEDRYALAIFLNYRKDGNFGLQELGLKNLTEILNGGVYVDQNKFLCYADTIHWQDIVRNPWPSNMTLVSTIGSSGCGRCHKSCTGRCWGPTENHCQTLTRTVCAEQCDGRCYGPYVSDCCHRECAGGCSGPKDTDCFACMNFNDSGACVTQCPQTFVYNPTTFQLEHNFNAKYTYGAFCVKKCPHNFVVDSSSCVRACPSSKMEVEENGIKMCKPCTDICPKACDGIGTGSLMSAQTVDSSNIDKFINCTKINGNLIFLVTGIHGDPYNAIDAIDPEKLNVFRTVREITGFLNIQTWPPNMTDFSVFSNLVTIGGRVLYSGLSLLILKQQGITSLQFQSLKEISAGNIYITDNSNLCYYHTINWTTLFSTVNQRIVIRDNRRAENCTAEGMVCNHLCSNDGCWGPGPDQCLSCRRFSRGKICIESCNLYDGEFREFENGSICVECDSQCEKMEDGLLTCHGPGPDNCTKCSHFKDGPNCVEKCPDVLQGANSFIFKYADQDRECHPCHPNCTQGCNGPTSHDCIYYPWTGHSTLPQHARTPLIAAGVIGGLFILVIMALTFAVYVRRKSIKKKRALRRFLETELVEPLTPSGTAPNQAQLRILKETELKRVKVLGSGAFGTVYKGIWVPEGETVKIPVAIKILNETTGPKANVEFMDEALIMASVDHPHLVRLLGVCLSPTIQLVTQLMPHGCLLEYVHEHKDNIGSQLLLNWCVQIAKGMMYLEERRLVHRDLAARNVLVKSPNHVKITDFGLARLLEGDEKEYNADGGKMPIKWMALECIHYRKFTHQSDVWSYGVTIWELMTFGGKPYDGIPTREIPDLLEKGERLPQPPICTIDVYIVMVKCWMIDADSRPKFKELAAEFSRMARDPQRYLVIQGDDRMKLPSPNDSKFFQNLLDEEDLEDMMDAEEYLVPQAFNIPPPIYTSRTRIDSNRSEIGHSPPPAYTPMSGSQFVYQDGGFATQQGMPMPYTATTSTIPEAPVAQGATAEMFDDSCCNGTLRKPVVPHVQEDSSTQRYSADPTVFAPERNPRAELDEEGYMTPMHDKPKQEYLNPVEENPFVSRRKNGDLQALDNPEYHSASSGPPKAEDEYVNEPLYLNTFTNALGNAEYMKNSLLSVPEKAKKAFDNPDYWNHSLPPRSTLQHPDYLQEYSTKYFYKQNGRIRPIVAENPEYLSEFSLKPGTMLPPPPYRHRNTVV
parameter: Selectivity SC/CM
Number, no unit, nothing else.

Record summary for huNRG1(S177-F229) 6xHis (ligand) SHLVKCAEKEKTFCVNGGECFMVKDLSNPSRYLCKCPNEFTGDRCQNYVMASFGGGGEGGGGAGGGGHHHHHH : reported Selectivity SC/CM = 6.17

Now examine the next entry.
Record summary for huNRG1(S177-Q237)(1A7)::GG::huFcSEFL2 (Pb) (Fc fusion) SHLVKCAERDKSFCVNGGECYVIEHLSNPSRFLCKCPNEFTGDRCQKDFMASFYKAEELYQGGDKTHTCPPCPAPELLGGPSVFLFPPKPKDTLMISRTPEVTCVVVDVSHEDPEVKFNWYVDGVEVHNAKTKPCEEQYGSTYRCVSVLTVLHQDWLNGKEYKCKVSNKALPAPIEKTISKAKGQPREPQVYTLPPSREEMTKNQVSLTCLVKGFYPSDIAVEWESNGQPENNYKTTPPVLDSDGSFFLYSKLTVDKSRWQQGNVFSCSVMHEALHNHYTQKSLSLSPGK : reported Selectivity SC/CM = 1620
